Consider molecules characterized by their AC50 with Thromboxane A2 receptor (Homo sapiens, UniProt P21731).
Sequence (P21731 whole entry): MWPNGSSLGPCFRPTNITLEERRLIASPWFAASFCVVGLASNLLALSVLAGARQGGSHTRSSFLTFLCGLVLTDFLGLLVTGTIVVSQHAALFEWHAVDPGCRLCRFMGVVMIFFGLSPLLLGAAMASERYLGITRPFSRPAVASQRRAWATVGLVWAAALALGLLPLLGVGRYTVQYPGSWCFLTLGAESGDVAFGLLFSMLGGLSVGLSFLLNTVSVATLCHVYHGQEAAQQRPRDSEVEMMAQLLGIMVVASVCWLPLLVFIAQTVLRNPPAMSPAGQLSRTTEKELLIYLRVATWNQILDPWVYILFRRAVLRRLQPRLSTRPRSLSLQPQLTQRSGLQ

Use these answered entries as a reference point.
INSERT INTO results (molecule, obs_value) VALUES
  ('CN(C)c1cc(NC(=O)CNC(C)(C)C)c(O)c2c1C[C@H]1C[C@H]3[C@H](N(C)C)C(O)=C(C(N)=O)C(=O)[C@@]3(O)C(O)=C1C2=O [TIGECYCLINE]', '> 30 µM'),
  ('NS(=O)(=O)c1cc(C2(O)NC(=O)c3ccccc32)ccc1Cl (stereo not drawn) [CHLORTHALIDONE]', '> 10 µM'),
  ('NS(=O)(=O)c1cc(C(=O)O)cc(N2CCCC2)c1Oc1ccccc1 [PIRETANIDE]', '> 30 µM');

I would be grateful if you could provide AC50 for each of the following entries.
1. C#C[C@]1(O)CC[C@H]2[C@@H]3CCc4cc(OC)ccc4[C@H]3CC[C@@]21C [MESTRANOL]
2. CCOC(=O)NNc1ccc(N(CC)CC(C)O)nn1 (stereo not drawn) [CADRALAZINE]
3. CC[C@H]1OC(=O)[C@H](C)[C@@H](O[C@H]2C[C@@](C)(OC)[C@@H](O)[C@H](C)O2)[C@H](C)[C@@H](O[C@@H]2O[C@H](C)C[C@H](N(C)C)[C@H]2O)[C@](C)(OC)C[C@@H](C)C(=O)[C@H](C)[C@@H](O)[C@]1(C)O [CLARITHROMYCIN]
4. CC(NCCc1ccc(O)cc1)C(O)c1ccc(O)cc1 (stereo not drawn) [RITODRINE]
5. O=C(O)CSCC(=O)NC1CCSC1=O (stereo not drawn) [ERDOSTEINE]
6. COCCOC(=O)C1=C(C)NC(C)=C(C(=O)OC/C=C/c2ccccc2)C1c1cccc([N+](=O)[O-])c1 (stereo not drawn) [CILNIDIPINE]

## Result
1: > 10 µM; 2: > 30 µM; 3: > 30 µM; 4: > 30 µM; 5: > 30 µM; 6: 21 µM

Provide AC50 values for the following items, in order.
1. CC#CCn1c(N2CCC[C@@H](N)C2)nc2c1c(=O)n(Cc1nc(C)c3ccccc3n1)c(=O)n2C [LINAGLIPTIN]
2. CNCCC=C1c2ccccc2CCc2ccccc21 [NORTRIPTYLINE]
3. Nc1ccn([C@@H]2O[C@H](CO)[C@@H](O)C2(F)F)c(=O)n1 [GEMCITABINE]
4. CC(C)N(CCCCOCC(=O)NS(C)(=O)=O)c1cnc(-c2ccccc2)c(-c2ccccc2)n1 [SELEXIPAG]

## Result
1. > 30 µM
2. > 30 µM
3. > 30 µM
4. 23.9 µM

* * *

- experimental_target: Alpha-2A adrenergic receptor (Homo sapiens, UniProt P08913); note: assay procedure not described here
- Sequence (P08913 whole entry): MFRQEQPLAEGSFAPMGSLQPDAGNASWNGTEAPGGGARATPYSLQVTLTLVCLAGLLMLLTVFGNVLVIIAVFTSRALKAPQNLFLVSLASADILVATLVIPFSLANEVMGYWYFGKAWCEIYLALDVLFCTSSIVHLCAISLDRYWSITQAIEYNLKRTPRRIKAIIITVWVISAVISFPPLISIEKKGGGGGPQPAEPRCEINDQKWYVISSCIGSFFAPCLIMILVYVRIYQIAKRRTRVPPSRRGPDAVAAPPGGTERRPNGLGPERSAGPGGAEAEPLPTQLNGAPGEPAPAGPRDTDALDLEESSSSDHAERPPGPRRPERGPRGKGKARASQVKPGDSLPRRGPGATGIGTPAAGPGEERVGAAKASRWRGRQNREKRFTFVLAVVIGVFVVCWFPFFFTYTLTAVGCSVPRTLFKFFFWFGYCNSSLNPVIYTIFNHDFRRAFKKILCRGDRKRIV
- Assay type: functional, cell-based
assay_metric: AC50

Below, each entry is followed by its recorded AC50 result.
INSERT INTO measurements (molecule, obs_value) VALUES
  ('COc1cc2c(Nc3ccc(Br)cc3F)ncnc2cc1OCC1CCN(C)CC1', '> 30 µM'),
  ('CCOc1cc(CC(=O)N[C@@H](CC(C)C)c2ccccc2N2CCCCC2)ccc1C(=O)O [REPAGLINIDE]', '> 30 µM');

Kindly give each listed record's AC50.
1. CN(c1nccc(=O)[nH]1)C1CCN(c2nc3ccccc3n2Cc2ccc(F)cc2)CC1
2. COc1ccc(C(CN(C)C)C2(O)CCCCC2)cc1 (centres undefined)
3. CC(=O)OCC(CCn1cnc2cnc(N)nc21)COC(C)=O
4. CCCOC(C(=O)OC1CCN(C)CC1)(c1ccccc1)c1ccccc1
5. CN(C)c1cc(NC(=O)CNC(C)(C)C)c(O)c2c1C[C@H]1C[C@H]3[C@H](N(C)C)C(O)=C(C(N)=O)C(=O)[C@@]3(O)C(O)=C1C2=O

## Result
> 30 µM
> 10 µM
> 10 µM
> 30 µM
> 30 µM
